test system: NCI-H1792; assay: relative viability (nuclei count vs DMSO), 5 days (fraction); higher = more cells survive; conditions: first compound 0.5 µM
metric: relative viability
Give bare numbers.

What does the record list as relative viability for CC1(C)CCC(c2ccc(Cl)cc2)=C(CN2CCN(c3ccc(C(=O)NS(=O)(=O)c4ccc(N[C@H](CCN5CCOCC5)CSc5ccccc5)c(S(=O)(=O)C(F)(F)F)c4)cc3)CC2)C1 [Navitoclax] + NC(=O)Nc1cc(-c2cccc(F)c2)sc1C(=O)N[C@H]1CCCNC1 [AZD7762] (partner 0.2 µM) ?
0.502

----------
Task for the reader: assign each of the following molecules its reported relative viability.
tested on: EPLC-272H; experiment: relative viability (nuclei count vs DMSO), 5 days (fraction); higher = more cells survive; conditions: first compound 0.253 µM
One number for each entry.

molecule="Oc1nc(-c2ccc(C(F)(F)F)cc2)nc2c1CSCC2 [XAV939] + COc1cccc2cc(-c3nc([C@H]4CC[C@H](C(=O)O)CC4)n4ncnc(N)c34)[nH]c12 [OSI-027] (partner 0.5 µM)" target=EPLC-272H meas_value=0.22
molecule="Oc1nc(-c2ccc(C(F)(F)F)cc2)nc2c1CSCC2 [XAV939] + Cc1cc(Nc2cc(N3CCN(C)CC3)nc(Sc3ccc(NC(=O)C4CC4)cc3)n2)n[nH]1 [Tozasertib] (partner 0.1 µM)" target=EPLC-272H meas_value=0.287
molecule="Oc1nc(-c2ccc(C(F)(F)F)cc2)nc2c1CSCC2 [XAV939] + C[C@]1(O)C[C@@H](c2nc(-c3ccc4ccc(-c5ccccc5)nc4c3)c3c(N)nccn32)C1 [Linsitinib] (partner 1 µM)" target=EPLC-272H meas_value=1.08
molecule="Oc1nc(-c2ccc(C(F)(F)F)cc2)nc2c1CSCC2 [XAV939] + O=C(c1cc(Cc2n[nH]c(=O)c3ccccc23)ccc1F)N1CCN(C(=O)C2CC2)CC1 [Olaparib] (partner 8 µM)" target=EPLC-272H meas_value=0.89
molecule="C=C1C(=O)O[C@@H](CCCCCCCC)[C@@H]1C(=O)O [C-75] + CS(=O)(=O)CCNCc1ccc(-c2ccc3ncnc(Nc4ccc(OCc5cccc(F)c5)c(Cl)c4)c3c2)o1 [Lapatinib] (partner 2 µM)" target=EPLC-272H meas_value=0.805

I'm hoping you can list relative viability for every molecule here, please.
1. Oc1nc(-c2ccc(C(F)(F)F)cc2)nc2c1CSCC2 [XAV939] + CC(=O)c1c(C)c2cnc(Nc3ccc(N4CCNCC4)cn3)nc2n(C2CCCC2)c1=O [Palbociclib] (partner 0.5 µM)
2. C=C1C(=O)O[C@@H](CCCCCCCC)[C@@H]1C(=O)O [C-75] + Nc1ncn([C@H]2C[C@H](O)[C@@H](CO)O2)c(=O)n1 [Decitabine] (partner 2 µM)
3. C=C1C(=O)O[C@@H](CCCCCCCC)[C@@H]1C(=O)O [C-75] + Cc1cc(Nc2cc(N3CCN(C)CC3)nc(Sc3ccc(NC(=O)C4CC4)cc3)n2)n[nH]1 [Tozasertib] (partner 0.1 µM)
4. C=C1C(=O)O[C@@H](CCCCCCCC)[C@@H]1C(=O)O [C-75] + CCNC(=O)c1noc(-c2cc(C(C)C)c(O)cc2O)c1-c1ccc(CN2CCOCC2)cc1 [Luminespib] (partner 0.01 µM)
5. C=C1C(=O)O[C@@H](CCCCCCCC)[C@@H]1C(=O)O [C-75] + CC(=O)c1c(C)c2cnc(Nc3ccc(N4CCNCC4)cn3)nc2n(C2CCCC2)c1=O [Palbociclib] (partner 0.5 µM)

1. 0.251
2. 0.436
3. 0.243
4. 0.308
5. 0.387

What does the record list as relative viability for Oc1nc(-c2ccc(C(F)(F)F)cc2)nc2c1CSCC2 [XAV939] + CC(=O)Nc1cccc(-n2c(=O)n(C3CC3)c(=O)c3c(Nc4ccc(I)cc4F)n(C)c(=O)c(C)c32)c1 [Trametinib] (partner 0.02 µM) ?
0.251

----------
system: NCI-H3122; assay: relative viability (nuclei count vs DMSO), 5 days (fraction); higher = more cells survive; conditions: first compound 0.01581 µM
metric: relative viability
Numbers only.

compound="CC1(C)CCC(c2ccc(Cl)cc2)=C(CN2CCN(c3ccc(C(=O)NS(=O)(=O)c4ccc(N[C@H](CCN5CCOCC5)CSc5ccccc5)c(S(=O)(=O)C(F)(F)F)c4)cc3)CC2)C1 [Navitoclax] + Nc1ncn([C@H]2C[C@H](O)[C@@H](CO)O2)c(=O)n1 [Decitabine] (partner 2 µM)" metric="relative viability" meas_value=0.446

I'm curious: which relative viability was measured for CC1(C)CCC(c2ccc(Cl)cc2)=C(CN2CCN(c3ccc(C(=O)NS(=O)(=O)c4ccc(N[C@H](CCN5CCOCC5)CSc5ccccc5)c(S(=O)(=O)C(F)(F)F)c4)cc3)CC2)C1 [Navitoclax] + Cc1nc(Nc2ncc(C(=O)Nc3c(C)cccc3Cl)s2)cc(N2CCN(CCO)CC2)n1 [Dasatinib] (partner 0.075 µM) tested on NCI-H3122?
0.838

----------
test system: NCI-H1993; test: relative viability (nuclei count vs DMSO), 5 days (fraction); higher = more cells survive; conditions: first compound 0.04 µM
The threshold is 0.8. Values of relative viability beneath it are tagged 1 (yes); values meeting or exceeding it are tagged 0 (no).

compound="O=C(O)c1ccc(-c2c[nH]c3ncc(-c4ccccc4)cc23)cc1C1CCCC1 + O=C(CCCCCCC(=O)Nc1ccccc1)NO [Vorinostat] (partner 1 µM)" class_assignment="0 (no)"
compound="O=C(O)c1ccc(-c2c[nH]c3ncc(-c4ccccc4)cc23)cc1C1CCCC1 + Nc1ncn([C@H]2C[C@H](O)[C@@H](CO)O2)c(=O)n1 [Decitabine] (partner 2 µM)" class_assignment="1 (yes)"
compound="O=C(O)c1ccc(-c2c[nH]c3ncc(-c4ccccc4)cc23)cc1C1CCCC1 + CCNC(=O)c1noc(-c2cc(C(C)C)c(O)cc2O)c1-c1ccc(CN2CCOCC2)cc1 [Luminespib] (partner 0.01 µM)" class_assignment="0 (no)"
compound="O=C(O)c1ccc(-c2c[nH]c3ncc(-c4ccccc4)cc23)cc1C1CCCC1 + O=C(c1cc(Cc2n[nH]c(=O)c3ccccc23)ccc1F)N1CCN(C(=O)C2CC2)CC1 [Olaparib] (partner 8 µM)" class_assignment="0 (no)"

Now look at this one.
Given the entry O=C(O)c1ccc(-c2c[nH]c3ncc(-c4ccccc4)cc23)cc1C1CCCC1 + N=C(N)NC(=N)NCCc1ccccc1 [Phenformin] (partner 250 µM) , would its reported relative viability be below 0.8?
1 (yes)

----------
system: LC-2-ad; assay: relative viability (nuclei count vs DMSO), 5 days (fraction); higher = more cells survive; conditions: first compound 0.4 µM
metric: relative viability
One number for each entry.

Examples from the recorded data:
compound="O=C(O)c1ccc(-c2c[nH]c3ncc(-c4ccccc4)cc23)cc1C1CCCC1 + CS(=O)(=O)N1CCN(Cc2cc3nc(-c4cccc5[nH]ncc45)nc(N4CCOCC4)c3s2)CC1 [Pictilisib] (partner 1 µM)" meas_value=0.462
compound="O=C(O)c1ccc(-c2c[nH]c3ncc(-c4ccccc4)cc23)cc1C1CCCC1 + CCNC(=O)c1noc(-c2cc(C(C)C)c(O)cc2O)c1-c1ccc(CN2CCOCC2)cc1 [Luminespib] (partner 0.01 µM)" meas_value=0.822
compound="O=C(O)c1ccc(-c2c[nH]c3ncc(-c4ccccc4)cc23)cc1C1CCCC1 + Nc1nc2[nH]cc(CCc3ccc(C(=O)N[C@@H](CCC(=O)O)C(=O)O)cc3)c2c(=O)[nH]1 [Pemetrexed] (partner 0.2 µM)" meas_value=0.278
compound="O=C(O)c1ccc(-c2c[nH]c3ncc(-c4ccccc4)cc23)cc1C1CCCC1 + CC(=O)c1c(C)c2cnc(Nc3ccc(N4CCNCC4)cn3)nc2n(C2CCCC2)c1=O [Palbociclib] (partner 0.5 µM)" meas_value=0.489
compound="O=C(O)c1ccc(-c2c[nH]c3ncc(-c4ccccc4)cc23)cc1C1CCCC1 + C[C@@H](Oc1cc(-c2cnn(C3CCNCC3)c2)cnc1N)c1c(Cl)ccc(F)c1Cl [Crizotinib] (partner 1 µM)" meas_value=0.412

I'm curious: which relative viability was measured for O=C(O)c1ccc(-c2c[nH]c3ncc(-c4ccccc4)cc23)cc1C1CCCC1 + Cc1nc(Nc2ncc(C(=O)Nc3c(C)cccc3Cl)s2)cc(N2CCN(CCO)CC2)n1 [Dasatinib] (partner 0.075 µM) tested on LC-2-ad?
0.489

----------
tested on: NCI-H661; test: relative viability (nuclei count vs DMSO), 5 days (fraction); higher = more cells survive; details: first compound 0.8 µM
Task for the reader: assign each of the following molecules its reported relative viability.
One number for each entry.

Examples from the recorded data:
molecule="C=C1C(=O)O[C@@H](CCCCCCCC)[C@@H]1C(=O)O [C-75] + C[C@@H](Oc1cc(-c2cnn(C3CCNCC3)c2)cnc1N)c1c(Cl)ccc(F)c1Cl [Crizotinib] (partner 1 µM)" meas_value=1.04
molecule="Oc1nc(-c2ccc(C(F)(F)F)cc2)nc2c1CSCC2 [XAV939] + Nc1ncn([C@H]2C[C@H](O)[C@@H](CO)O2)c(=O)n1 [Decitabine] (partner 2 µM)" meas_value=0.544

# ---- query molecule ----
What does the record list as relative viability for Oc1nc(-c2ccc(C(F)(F)F)cc2)nc2c1CSCC2 [XAV939] + COc1cccc2cc(-c3nc([C@H]4CC[C@H](C(=O)O)CC4)n4ncnc(N)c34)[nH]c12 [OSI-027] (partner 0.5 µM) ?
0.696
